Data provenance is ChEMBL document CHEMBL3046736.

target.system: Aminopeptidase N (Homo sapiens, UniProt P15144)
Sequence (P15144 whole entry): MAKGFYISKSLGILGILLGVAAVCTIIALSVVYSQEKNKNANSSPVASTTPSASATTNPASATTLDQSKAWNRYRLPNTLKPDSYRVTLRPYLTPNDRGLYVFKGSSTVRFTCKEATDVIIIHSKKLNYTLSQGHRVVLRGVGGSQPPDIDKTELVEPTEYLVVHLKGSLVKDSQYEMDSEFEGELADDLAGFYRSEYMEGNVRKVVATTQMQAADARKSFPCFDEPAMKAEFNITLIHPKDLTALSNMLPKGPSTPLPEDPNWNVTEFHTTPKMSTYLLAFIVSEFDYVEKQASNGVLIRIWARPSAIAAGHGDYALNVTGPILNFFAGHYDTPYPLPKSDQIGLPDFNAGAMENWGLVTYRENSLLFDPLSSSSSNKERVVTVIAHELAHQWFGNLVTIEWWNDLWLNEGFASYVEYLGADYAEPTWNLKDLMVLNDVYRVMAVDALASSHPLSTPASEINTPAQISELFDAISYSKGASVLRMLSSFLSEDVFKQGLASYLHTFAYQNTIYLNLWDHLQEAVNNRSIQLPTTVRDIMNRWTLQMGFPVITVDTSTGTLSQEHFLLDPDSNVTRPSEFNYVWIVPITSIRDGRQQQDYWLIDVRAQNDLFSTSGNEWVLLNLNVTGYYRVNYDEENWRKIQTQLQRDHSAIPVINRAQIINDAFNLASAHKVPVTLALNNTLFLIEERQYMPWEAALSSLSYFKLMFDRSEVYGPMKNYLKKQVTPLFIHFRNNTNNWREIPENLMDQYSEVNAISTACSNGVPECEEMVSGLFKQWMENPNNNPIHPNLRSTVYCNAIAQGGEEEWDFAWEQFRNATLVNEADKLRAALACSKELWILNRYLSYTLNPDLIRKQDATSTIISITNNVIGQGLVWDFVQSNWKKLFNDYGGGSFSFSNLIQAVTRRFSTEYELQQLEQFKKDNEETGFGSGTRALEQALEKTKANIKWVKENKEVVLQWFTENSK
protocol: Inhibition of APM (unknown origin) assessed as inhibition of endomorphin-1 degradation after 30 min
assay.readout: Ki (µM)
Field: numeric (µM). Do not append units.

Ask: Report Ki, nothing else, for this compound: `CCCCC[C@H](CC(=O)NO)C(=O)N[C@H](C(=O)N1CCC[C@H]1CO)C(C)C`
Result: 390

---

target.system: Aminopeptidase N (Homo sapiens, UniProt P15144)
protocol: Inhibition of APM (unknown origin) assessed as inhibition of endomorphin-2 degradation after 30 min
assay.readout: Ki (µM)
Field: numeric (µM). Do not append units.

Ask: Report Ki, nothing else, for this compound: `CCCCC[C@H](CC(=O)NO)C(=O)N[C@H](C(=O)N1CCC[C@H]1CO)C(C)C`
Result: 300
